# credit: patent US20240116985A1

Reported IC50 is given for each of the following compounds.
# assay_target: full-length beta-Catenin (Uniprot ID P35222) (Homo sapiens)
# Construct: 10 nM full-length beta-Catenin (Uniprot ID P35222)
# measurement_notes: Fluorescence polarization IC50 (beta-catenin / 5FAM-TCF4 10-53 competition)
# Assay type: binding
# measurement_parameters: fluorescence polarization; read-out: beta-Catenin FP IC50
Respond numerically; units are nM and should not be typed.

compound | units_symbol | IC50
CC(=O)N1CCC[C@]12CC=CCCCC1(CCCC=CCCCCCC[C@@](C)(C(=O)N[C@@H](Cc3ccccc3)C(=O)N[C@@H](Cc3csc4ccccc34)C(=O)N[C@@H](CCC(N)=O)C(N)=O)NC(=O)[C@H](CCC(N)=O)NC(=O)[C@H](Cc3ccccc3)NC(=O)[C@H](C)NC(=O)[C@H](C)NC(=O)[C@H](CCC(=O)O)NC(=O)[C@H](CC(=O)O)NC1=O)NC(=O)[C@H](CC(C)(C)C)NC(=O)[C@H](CC(=O)O)NC2=O (stereo partly drawn) [I-544] | nM | 24
CC(=O)N1CCC[C@]12CC=CCCCC1(CCCC=CCCCCCC[C@@](C)(C(=O)N[C@@H](Cc3ccccc3)C(=O)N[C@@H](Cc3csc4ccccc34)C(=O)N[C@@H](Cc3c[nH]cn3)C(N)=O)NC(=O)[C@H](CCC(N)=O)NC(=O)[C@H](Cc3ccccc3)NC(=O)[C@H](C)NC(=O)[C@H](C)NC(=O)[C@H](CC(=O)O)NC(=O)[C@H](CC(=O)O)NC1=O)NC(=O)[C@H](CC(C)C)NC(=O)[C@H](CC(=O)O)NC2=O (stereo partly drawn) [I-560] | nM | 81

Switching to the query record.
Which IC50 value belongs to CC(=O)N1CCC[C@]12CC=CCCCC1(CCCC=CCCCOC(=O)N3CC[C@@](C(=O)N[C@@H](Cc4ccccc4Cl)C(=O)N[C@@H](Cc4csc5ccccc45)C(=O)N[C@@H](CCC(N)=O)C(N)=O)(C3)NC(=O)[C@H](CC(N)=O)NC(=O)[C@H](Cc3ccccc3)NC(=O)[C@H](C)NC(=O)[C@H](C)NC(=O)[C@H]([C@@H](C)O)NC(=O)[C@H](CC(N)=O)NC1=O)NC(=O)[C@H](CC(C)(C)C)NC(=O)[C@H](CC(=O)O)NC2=O (stereo partly drawn) [I-1998] ?
732

====

# assay_target: beta-catenin/TCF4 engagement (Homo sapiens, UniProt P35222)
# Construct: expressed in transfected cells; host or cells: HEK293
# Sequence (P35222 1-781): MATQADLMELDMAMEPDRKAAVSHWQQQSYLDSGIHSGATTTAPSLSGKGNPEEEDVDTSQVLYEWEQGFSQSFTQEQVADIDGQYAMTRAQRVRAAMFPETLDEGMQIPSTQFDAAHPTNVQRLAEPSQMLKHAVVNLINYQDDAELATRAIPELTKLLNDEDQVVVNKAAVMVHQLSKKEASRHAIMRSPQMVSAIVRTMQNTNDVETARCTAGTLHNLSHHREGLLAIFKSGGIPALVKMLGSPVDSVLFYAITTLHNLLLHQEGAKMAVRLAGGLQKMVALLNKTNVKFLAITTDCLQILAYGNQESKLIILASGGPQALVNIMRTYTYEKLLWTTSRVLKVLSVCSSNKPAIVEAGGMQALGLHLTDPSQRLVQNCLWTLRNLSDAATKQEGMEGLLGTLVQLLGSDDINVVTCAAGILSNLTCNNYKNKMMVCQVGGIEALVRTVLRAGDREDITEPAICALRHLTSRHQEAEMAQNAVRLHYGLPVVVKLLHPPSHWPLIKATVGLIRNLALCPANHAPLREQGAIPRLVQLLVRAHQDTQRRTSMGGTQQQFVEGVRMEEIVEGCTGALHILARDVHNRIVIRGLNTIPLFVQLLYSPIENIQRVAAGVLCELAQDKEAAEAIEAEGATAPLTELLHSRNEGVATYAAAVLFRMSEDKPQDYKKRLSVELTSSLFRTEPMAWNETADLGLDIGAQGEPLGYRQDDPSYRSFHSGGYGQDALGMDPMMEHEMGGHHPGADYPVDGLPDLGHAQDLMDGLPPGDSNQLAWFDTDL
# measurement_notes: Nano-BRET target engagement assay (B-cat-Halo & TCF4-Luc in HEK293 cells)
# Format: cell-based
# measurement_parameters: absolute IC50; read-out: NanoBRET Abs IC50
attribute_measured: IC50 (µM)
Numbers only; they are read as µM.

# example entries with known answers
molecule | attribute_measured | result_value
CCCC[C@@H]1NC(=O)[C@H](Cc2cccc(C(=O)O)c2)NC(=O)[C@H](CC(=O)O)NC(=O)C2(CCCC=CCCCOC(=O)N3CC[C@@](C(=O)N[C@@H](Cc4ccccc4Cl)C(=O)N[C@@H](Cc4csc5ccccc45)C(=O)N[C@@H](CCC(N)=O)C(N)=O)(C3)NC(=O)[C@H](CC(C)C)NC(=O)[C@H](Cc3ccccc3)NC(=O)CNC1=O)CCCC=CC[C@]1(CCCN1C(C)=O)C(=O)N[C@@H](CC(=O)O)C(=O)N[C@@H](CC(C)(C)C)C(=O)N2 (stereo partly drawn) | IC50 | 21.5
CC(=O)N1CCC[C@]12CC=CCCCC1(CCCC=CCCCOC(=O)N3CC[C@@](C(=O)N[C@@H](Cc4ccsc4)C(=O)N[C@@H](Cc4csc5ccccc45)C(=O)N[C@@H](CCC(=O)N4CC[C@@H](N(C)C)C4)C(N)=O)(C3)NC(=O)[C@H](CC(C)C)NC(=O)[C@H](Cc3ccccc3)NC(=O)[C@H](C)NC(=O)[C@H](C)NC(=O)[C@H](CN(CC(=O)O)CC(F)(F)F)NC(=O)[C@H](CC(=O)O)NC1=O)NC(=O)[C@H](CC(C)(C)C)NC(=O)[C@H](CC(=O)O)NC2=O (stereo partly drawn) [I-1804] | IC50 | 9.4

Could you share which IC50 value was measured for CC(=O)N1CCC[C@]12CC=CCCCC1(CCCC=CCCCOC(=O)N3CC[C@@](C(=O)N[C@@H](Cc4ccccc4C(F)(F)F)C(=O)N[C@@H](Cc4ccc(Cl)c(Cl)c4)C(=O)N[C@@H](C)C(N)=O)(C3)NC(=O)[C@H](CC(C)C)NC(=O)[C@H](Cc3ccccc3)NC(=O)[C@H](C)NC(=O)[C@H](CCC(N)=O)NC(=O)[C@H](Cc3cccc(C(=O)O)c3)NC(=O)[C@H](CC(=O)O)NC1=O)NC(=O)[C@H](CC(C)(C)C)NC(=O)[C@H](CC(=O)O)NC2=O (stereo partly drawn) ?
2.7

====

# assay_target: beta-catenin/TCF4 engagement (Homo sapiens)
# Construct: expressed in transfected cells; host or cells: HEK293
# measurement_notes: Nano-BRET target engagement assay (B-cat-Halo & TCF4-Luc in HEK293 cells)
# Format: cell-based
# measurement_parameters: absolute IC50; read-out: NanoBRET Abs IC50
attribute_measured: pIC50
As a rule, pIC50 stands for the negative log10 of the concentration, concentration in M.

Recorded results for 2 molecules are shown here.
molecule | pIC50
CC(=O)N1CCC[C@]12CC=CCCCC1(CCCC=CCCCOC(=O)N3CC[C@@](C(=O)N[C@@H](Cc4ccsc4)C(=O)N[C@@H](Cc4csc5ccccc45)C(=O)N[C@@H](CO)C(N)=O)(C3)NC(=O)[C@H](CC(C)C)NC(=O)[C@H](Cc3ccccc3)NC(=O)[C@H](C)NC(=O)[C@H](C)NC(=O)[C@H](CC(=O)O)NC(=O)[C@H](CC(=O)O)NC1=O)NC(=O)[C@H](CC(C)(C)C)NC(=O)[C@H](CC(=O)O)NC2=O (stereo partly drawn) | 5.31
CC(=O)N1CCC[C@]12CC=CCCCC1(CCCC=CCCCOC(=O)N3CC[C@@](C(=O)N[C@@H](Cc4ccsc4)C(=O)N[C@@H](Cc4csc5ccccc45)C(=O)N[C@@H](CCC(N)=O)C(N)=O)(C3)NC(=O)[C@H](CC(C)C)NC(=O)[C@H](Cc3ccccc3)NC(=O)[C@H](C)NC(=O)[C@H](C)NC(=O)[C@H](CC(=O)O)NC(=O)[C@H](CC(=O)O)NC1=O)NC(=O)[C@H](CC(C)(C)C)NC(=O)[C@H](CC(N)=O)NC2=O (stereo partly drawn) | 4.63

Note: attention shifts to another entry.
Form field: reported pIC50 of CC[C@@H]1NC(=O)[C@H](Cc2ccccc2)NC(=O)[C@H](C)NC(=O)C(C)(C)NC(=O)[C@H](Cc2cccc(C(=O)O)c2)NC(=O)[C@H](CC(=O)O)NC(=O)C2(CCCC=CCCCOC(=O)N3CC[C@@](C(=O)N[C@@H](Cc4ccsc4)C(=O)N[C@@H](Cc4csc5ccccc45)C(=O)N[C@@H](CCC(=O)N4CCOCC4)C(N)=O)(C3)NC1=O)CCCC=CC[C@]1(CCCN1C(C)=O)C(=O)N[C@@H](CC(=O)O)C(=O)N[C@@H](CC(C)(C)C)C(=O)N2 (stereo partly drawn)
4.83
